# Test system: nitrosoamine-induced pancreatic cancer
# protocol-description: in vivo hemorrhagic necrosis effect
# Set-up: species or system hamsters
# protocol-conditions: 24 hours after administration; Cn-Ga-DP-diAsp, n = odd numbers
observed-property: photograph of a cancer mass (Fig. 1)

CCCCCOC(C)C1=C(C)C2=Cc3c(C(C)OCCCCC)c(C)c4[n]3[Ga][n]3c(c(C)c(CCC(=O)NC(CC(=O)O)C(=O)O)c3=CC3=NC(=C4)C(C)=C3CCC(=O)NC(CC(=O)O)C(=O)O)=CC1=N2 (centres unmarked)	hemorrhagic necrosis
CCCOC(C)C1=C(C)C2=Cc3c(C(C)OCCC)c(C)c4[n]3[Ga][n]3c(c(C)c(CCC(=O)NC(CC(=O)O)C(=O)O)c3=CC3=NC(=C4)C(C)=C3CCC(=O)NC(CC(=O)O)C(=O)O)=CC1=N2 (centres unmarked)	hemorrhagic necrosis
CCCCCCCOC(C)C1=C(C)C2=Cc3c(C(C)OCCCCCCC)c(C)c4[n]3[Ga][n]3c(c(C)c(CCC(=O)NC(CC(=O)O)C(=O)O)c3=CC3=NC(=C4)C(C)=C3CCC(=O)NC(CC(=O)O)C(=O)O)=CC1=N2 (centres unmarked)	hemorrhagic necrosis
CCCCOC(C)C1=C(C)C2=Cc3c(C(C)OCCCC)c(C)c4[n]3[Ga][n]3c(c(C)c(CCC(=O)NC(CC(=O)O)C(=O)O)c3=CC3=NC(=C4)C(C)=C3CCC(=O)NC(CC(=O)O)C(=O)O)=CC1=N2 (centres unmarked)	hemorrhagic necrosis

Now look at this one.
## Input Print nitrosoamine-induced pancreatic cancer photograph of a cancer mass (Fig. 1) for CCCCCCCCCOC(C)C1=C(C)c2cc3[nH]c(cc4nc(cc5[nH]c(cc1n2)c(C)c5C(C)OCCCCCCCCC)C(C)=C4CCC(=O)NC(CC(=O)O)C(=O)O)c(CCC(=O)NC(CC(=O)O)C(=O)O)c3C.[Ga] (centres unmarked) .
## Output hemorrhagic necrosis

Data provenance is patent EP0350948B1.
